Entries and their Internalization percentage, 1 h, BXPC-3 cells, FACS
Target: T1, human Trop-2 on the surface of cells (CHO/Trop-2 cells; BxPC-3 cells; NCI-N87 cells) (human, UniProt P09758 27-323)
T1 sequence (looked up): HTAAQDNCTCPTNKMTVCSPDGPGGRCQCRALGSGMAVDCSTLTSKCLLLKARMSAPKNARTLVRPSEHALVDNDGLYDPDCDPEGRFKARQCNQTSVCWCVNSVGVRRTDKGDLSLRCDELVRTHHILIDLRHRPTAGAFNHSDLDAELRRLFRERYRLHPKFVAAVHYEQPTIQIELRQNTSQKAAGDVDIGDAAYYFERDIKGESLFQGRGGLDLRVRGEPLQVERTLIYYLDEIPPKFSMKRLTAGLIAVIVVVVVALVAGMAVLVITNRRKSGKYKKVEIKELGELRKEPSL
Experiment: cell-based or functional assay
// note: answer is a bare numeric in %

Example entries begin here.
binder	recordedNumber
h23-12-25 (antibody, human IgG1, kappa, V domains shown, also called h32-12) VH: QVQLVQSGAEVKKPGASVKVSCKASGYTFTSYWMHWVRQAPGQGLEWMGEITPSDNYGSYNQKFKGRVTITRDTSTSTAYMELSSLRSEDTAVYYCARGHGNYVSFDYWGQGTLVTVSS VL: DIQMTQSPSSLSASVGDRVTITCRASQDISNYLNWYQQKPGKAPKLLIYYTSRLESGVPSRFSGSGSGTDFTLTISSLQPEDFATYFCQQGYTLPPYTFGQGTKLEIKR	32.4
ch4-3-SN38 (antibody, V domains shown, CL2A-SN-38 conjugated to the DTT-reduced antibody; 7.5 SN38 per antibody; sites not stated, also called ch4-3 labeled with SN38) VH: QVQLQQSGPELVKPGASVKMSCKASGFTFTDYVIGWVKQRTGQGLEWIGEIYLGSGTIYYTEKFKGKATLTADTSSNTAYMQLSSLTSEDSAVYFCARGSIFPFDYWGQGTTLTVSS VL: QIVLTQSPAIMSASPGEKVTMTCSASSSVSYMYWYQQKPGSSPRLLIYDTSTLASGVPVRFSGSGSGTSYSLTISRMEAEDAATYYCQQWSSYPYTFGGGTKLEIK	57.7

Now examine the next entry.
Record Sacituzumab (antibody, human IgG1, kappa, V domains shown, expressed in HEK293; also called control antibody Sacituzumab; Saituzumab) VH: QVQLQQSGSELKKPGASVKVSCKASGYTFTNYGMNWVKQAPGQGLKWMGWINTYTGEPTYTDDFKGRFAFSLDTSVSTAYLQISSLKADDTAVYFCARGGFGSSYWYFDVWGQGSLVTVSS VL: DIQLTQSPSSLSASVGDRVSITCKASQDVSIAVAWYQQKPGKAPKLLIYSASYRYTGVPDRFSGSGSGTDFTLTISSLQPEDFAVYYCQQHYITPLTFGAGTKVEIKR , field Internalization percentage, 1 h, BXPC-3 cells, FACS: 37.4

Attribution: patent US20240092930A1
